target: UniProt P20618; assay: Inhibition of 26S proteasome beta 1 in human HEK293 cell lysate assessed as residual activity at 0.167 uM after 1 hr; assay type: cell-free
Metric: Activity (%)

Some solved entries appear below for comparison.
{"Compound": "CC(C)C[C@H](NC(=O)[C@H](Cc1ccccc1)NC(=O)[C@H](Cc1ccccc1)NC(=O)[C@H](Cc1ccccc1)N=[N+]=[N-])C(=O)[C@@]1(C)CO1", "Uom": "%", "Experimental Result": 84.9}
{"Compound": "CC(C)C[C@H](NC(=O)[C@H](Cc1ccccc1)NC(=O)[C@H](Cc1cc(C(F)(F)F)cc(C(F)(F)F)c1)NC(=O)[C@H](Cc1ccccc1)N=[N+]=[N-])C(=O)[C@@]1(C)CO1", "Uom": "%", "Experimental Result": 85.7}
{"Compound": "CC(C)C[C@H](NC(=O)[C@H](Cc1cc(C(F)(F)F)cc(C(F)(F)F)c1)NC(=O)c1cnccn1)B1OC2C[C@@H]3C[C@@H](C3(C)C)[C@]2(C)O1 (some centres not stated)", "Uom": "%", "Experimental Result": 45.2}

a: CC(C)C[C@H](NC(=O)[C@H](Cc1c(F)c(F)c(F)c(F)c1F)NC(=O)[C@H](Cc1ccccc1)NC(=O)[C@H](Cc1ccccc1)N=[N+]=[N-])C(=O)[C@@]1(C)CO1
b: CC(C)C[C@H](NC(=O)[C@H](Cc1c(F)c(F)c(F)c(F)c1F)NC(=O)c1cnccn1)B1OC2C[C@@H]3C[C@@H](C3(C)C)[C@]2(C)O1 (some centres not stated)
Between these two entries, a and b , state which has the higher Activity. Give the chosen item's label as your response.
a

----------
biological target: Proteasome Macropain subunit (Homo sapiens) (UniProt P49721); assay: Inhibition of 26S proteasome beta 2 in human HEK293 cell lysate assessed as residual activity at 13.5 uM after 1 hr; format: cell-free
Sequence (P49721 whole entry): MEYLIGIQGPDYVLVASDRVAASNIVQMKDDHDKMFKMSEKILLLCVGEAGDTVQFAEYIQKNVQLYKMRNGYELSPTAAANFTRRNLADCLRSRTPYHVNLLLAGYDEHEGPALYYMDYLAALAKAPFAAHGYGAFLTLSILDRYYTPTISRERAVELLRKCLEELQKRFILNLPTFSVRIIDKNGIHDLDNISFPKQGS
Metric: Activity (%)

Some solved entries appear below for comparison.
{"Compound": "CC(C)C[C@H](NC(=O)[C@H](Cc1cc(C(F)(F)F)cc(C(F)(F)F)c1)NC(=O)c1cnccn1)B1OC2C[C@@H]3C[C@@H](C3(C)C)[C@]2(C)O1 (some centres undefined)", "Experimental Result": 38.5}
{"Compound": "CC(C)C[C@H](NC(=O)[C@H](Cc1ccccc1)NC(=O)[C@H](Cc1c(F)c(F)c(F)c(F)c1F)NC(=O)[C@H](Cc1ccccc1)N=[N+]=[N-])C(=O)[C@@]1(C)CO1", "Experimental Result": 98.4}

P: CC(C)C[C@H](NC(=O)[C@H](Cc1ccccc1)NC(=O)[C@H](Cc1ccccc1)NC(=O)[C@H](Cc1ccccc1)N=[N+]=[N-])C(=O)[C@@]1(C)CO1
Q: CC(C)C[C@H](NC(=O)[C@H](Cc1c(F)c(F)c(F)c(F)c1F)NC(=O)[C@H](Cc1ccccc1)NC(=O)[C@H](Cc1ccccc1)N=[N+]=[N-])C(=O)[C@@]1(C)CO1
Between these two entries, P and Q , state which has the higher Activity. Give the chosen item's label as your response.
Q

----------
molecular target: Proteasome component C5 (Homo sapiens) (UniProt P20618); experiment: Inhibition of 26S proteasome beta 1 in human HEK293 cell lysate assessed as residual activity at 0.001 uM after 1 hr; format: cell-free
Sequence (P20618 whole entry): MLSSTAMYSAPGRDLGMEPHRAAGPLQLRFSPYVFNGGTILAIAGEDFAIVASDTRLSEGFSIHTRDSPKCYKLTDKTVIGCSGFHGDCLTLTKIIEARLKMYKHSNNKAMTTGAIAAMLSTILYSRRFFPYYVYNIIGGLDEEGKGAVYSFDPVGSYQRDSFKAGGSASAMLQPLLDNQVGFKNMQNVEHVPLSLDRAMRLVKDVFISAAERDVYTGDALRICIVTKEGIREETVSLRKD
Metric: Activity (%)

{"Molecule": "CC(C)C[C@H](NC(=O)[C@H](Cc1cc(C(F)(F)F)cc(C(F)(F)F)c1)NC(=O)c1cnccn1)B1OC2C[C@@H]3C[C@@H](C3(C)C)[C@]2(C)O1 (stereo partly specified)", "Metric": "Activity", "Experimental Result": 99.9}
{"Molecule": "CC(C)C[C@H](NC(=O)[C@H](Cc1ccccc1)NC(=O)[C@H](Cc1ccccc1)NC(=O)[C@H](Cc1ccccc1)N=[N+]=[N-])C(=O)[C@@]1(C)CO1", "Metric": "Activity", "Experimental Result": 105}
{"Molecule": "CC(C)C[C@H](NC(=O)[C@H](Cc1c(F)c(F)c(F)c(F)c1F)NC(=O)c1cnccn1)B1OC2C[C@@H]3C[C@@H](C3(C)C)[C@]2(C)O1 (stereo partly specified)", "Metric": "Activity", "Experimental Result": 110}
{"Molecule": "CC(C)C[C@H](NC(=O)[C@H](Cc1ccccc1)NC(=O)[C@H](Cc1cc(C(F)(F)F)cc(C(F)(F)F)c1)NC(=O)[C@H](Cc1ccccc1)N=[N+]=[N-])C(=O)[C@@]1(C)CO1", "Metric": "Activity", "Experimental Result": 112}
{"Molecule": "CC(C)C[C@H](NC(=O)[C@H](Cc1c(F)c(F)c(F)c(F)c1F)NC(=O)[C@H](Cc1ccccc1)NC(=O)[C@H](Cc1ccccc1)N=[N+]=[N-])C(=O)[C@@]1(C)CO1", "Metric": "Activity", "Experimental Result": 100}
{"Molecule": "CC(C)C[C@H](NC(=O)[C@H](Cc1cc(C(F)(F)F)cc(C(F)(F)F)c1)NC(=O)[C@H](Cc1ccccc1)NC(=O)[C@H](Cc1ccccc1)N=[N+]=[N-])C(=O)[C@@]1(C)CO1", "Metric": "Activity", "Experimental Result": 106}

----------
molecular target: Proteasome component C5 (Homo sapiens) (UniProt P20618); experiment: Inhibition of 26S proteasome beta 1 in human HEK293 cell lysate assessed as residual activity at […] after 1 hr; type: cell-free
Metric: Activity (%)

Some solved entries appear below for comparison.
{"Compound": "CC(C)C[C@H](NC(=O)[C@H](Cc1cc(C(F)(F)F)cc(C(F)(F)F)c1)NC(=O)[C@H](Cc1ccccc1)NC(=O)[C@H](Cc1ccccc1)N=[N+]=[N-])C(=O)[C@@]1(C)CO1", "Experimental Result": 67.7}
{"Compound": "CC(C)C[C@H](NC(=O)[C@H](Cc1ccccc1)NC(=O)[C@H](Cc1c(F)c(F)c(F)c(F)c1F)NC(=O)[C@H](Cc1ccccc1)N=[N+]=[N-])C(=O)[C@@]1(C)CO1", "Experimental Result": 102}

P: CC(C)C[C@H](NC(=O)[C@H](Cc1ccccc1)NC(=O)[C@H](Cc1cc(C(F)(F)F)cc(C(F)(F)F)c1)NC(=O)[C@H](Cc1ccccc1)N=[N+]=[N-])C(=O)[C@@]1(C)CO1
Q: CC(C)C[C@H](NC(=O)[C@H](Cc1c(F)c(F)c(F)c(F)c1F)NC(=O)c1cnccn1)B1OC2C[C@@H]3C[C@@H](C3(C)C)[C@]2(C)O1 (stereo not given in full)
R: CC(C)C[C@H](NC(=O)[C@H](Cc1ccccc1)NC(=O)[C@H](Cc1ccccc1)NC(=O)[C@H](Cc1ccccc1)N=[N+]=[N-])C(=O)[C@@]1(C)CO1
Write the entries in order, lowest recorded Activity first. Please reply with the labels ordered as requested. Many thanks.
Q, R, P

----------
molecular target: Proteasome subunit beta type-5 (Homo sapiens); test: Inhibition of 26S proteasome beta 5 in human HEK293 cell lysate assessed as residual activity at 1.5 uM after 1 hr
Metric: Activity (%)

{"Compound": "CC(C)C[C@H](NC(=O)[C@H](Cc1ccccc1)NC(=O)[C@H](Cc1cc(C(F)(F)F)cc(C(F)(F)F)c1)NC(=O)[C@H](Cc1ccccc1)N=[N+]=[N-])C(=O)[C@@]1(C)CO1", "Metric": "Activity", "Uom": "%", "Experimental Result": 9.8}
{"Compound": "CC(C)C[C@H](NC(=O)[C@H](Cc1ccccc1)NC(=O)[C@H](Cc1c(F)c(F)c(F)c(F)c1F)NC(=O)[C@H](Cc1ccccc1)N=[N+]=[N-])C(=O)[C@@]1(C)CO1", "Metric": "Activity", "Uom": "%", "Experimental Result": 14.7}

1: CC(C)C[C@H](NC(=O)[C@H](Cc1cc(C(F)(F)F)cc(C(F)(F)F)c1)NC(=O)[C@H](Cc1ccccc1)NC(=O)[C@H](Cc1ccccc1)N=[N+]=[N-])C(=O)[C@@]1(C)CO1
2: CC(C)C[C@H](NC(=O)[C@H](Cc1cc(C(F)(F)F)cc(C(F)(F)F)c1)NC(=O)c1cnccn1)B1OC2C[C@@H]3C[C@@H](C3(C)C)[C@]2(C)O1 (some centres undefined)
Smaller Activity value, 1 vs 2 ? Give the chosen item's label as your response.
2
(2: 5.4%, 1: 9.5%)

----------
target: Proteasome subunit beta type-5 (Homo sapiens) (UniProt P28074); test: Inhibition of 26S proteasome beta 5 in human HEK293 cell lysate assessed as residual activity at 13.5 uM after 1 hr
Metric: Activity (%)

Some solved entries appear below for comparison.
{"Compound": "CC(C)C[C@H](NC(=O)[C@H](Cc1ccccc1)NC(=O)[C@H](Cc1c(F)c(F)c(F)c(F)c1F)NC(=O)[C@H](Cc1ccccc1)N=[N+]=[N-])C(=O)[C@@]1(C)CO1", "Activity / %": 5.8}
{"Compound": "CC(C)C[C@H](NC(=O)[C@H](Cc1cc(C(F)(F)F)cc(C(F)(F)F)c1)NC(=O)[C@H](Cc1ccccc1)NC(=O)[C@H](Cc1ccccc1)N=[N+]=[N-])C(=O)[C@@]1(C)CO1", "Activity / %": 3}

1: CC(C)C[C@H](NC(=O)[C@H](Cc1ccccc1)NC(=O)[C@H](Cc1cc(C(F)(F)F)cc(C(F)(F)F)c1)NC(=O)[C@H](Cc1ccccc1)N=[N+]=[N-])C(=O)[C@@]1(C)CO1
2: CC(C)C[C@H](NC(=O)[C@H](Cc1cc(C(F)(F)F)cc(C(F)(F)F)c1)NC(=O)c1cnccn1)B1OC2C[C@@H]3C[C@@H](C3(C)C)[C@]2(C)O1 (some centres undefined)
Between these two entries, 1 and 2 , state which has the higher Activity. Give the chosen item's label as your response.
1
